System: SN12C
Assay: NCI tumour cell line growth inhibition, 48 h
Calls of active or inactive are those of the source. Rule as the data show it: active = GI50 up to about 1.1 µM and inactive = higher.

| MOLECULE | GI50 |
| --- | --- |
| COc1cccc2c1C(=O)c1c(O)c3c(c(O)c1C2=O)CC(O)(C(C)=O)CC3OC1OC(COC(C)=O)C(OC(C)=O)C(OC(C)=O)C1OC(C)=O (stereo not given) | 48.3 µM (inactive) |
| c1cc(CSc2ncnc3[nH]cnc23)ccn1 | > 100 µM (inactive) |
| O=C1c2ccccc2-c2[nH]c3cn[nH]c(=O)c3c21 | > 100 µM (inactive) |
| Cn1c(=O)cc(NNc2ccccc2)[nH]c1=O | 61.5 µM (inactive) |
| Cc1ccc(S(=O)(=O)N(/N=C(\N)Oc2ccc(Cl)cc2)C(=N)Oc2ccc(Cl)cc2)cc1 | > 100 µM (inactive) |

Where do the numbers come from? From ChEMBL document CHEMBL1201862.
